system: MS2 coat protein; experiment: apparent KD of MS2 coat protein, switch ON state; designed switch direction (-1 OFF switch, 1 ON switch): -1; higher = weaker reporter binding; details: FMN input: 0 or 200 uM; Eterna round: R93 (includes R88 designs)
# maps each entry to its apparent KD of MS2 coat protein

The following sequences have reported results that may help.
1) CUUAAACAUGAGGAUCACCCAUGUGAGGAUAUGAUGCGAAUAAAGAAAGAAGAAAGCAUCAGAAGGCACAUAUG    27.7 nM
2) AAAAAACAUGAGGAUCACCCAUGUGAGGAUAUGACGUAAAUAAAGAAAGAAUAAAUCGUCAGAAGGCACACCAA [Mat - Exclusion 1 - Eli mod - D71]    31.4 nM

# context switch: different sequence, same apparent KD of MS2 coat protein
So what does the record say about apparent KD of MS2 coat protein for GCUUGGGUAGGAUAUACAUGAGGAUCACCCAUGUGAGAGAAAAAAGUGAGAAAGAAAAGUAGAAGGACUUGAGG [salish99-ex3-83] ?
177 nM
